Provide the reported residual activity of each item.
# System name: Serine/threonine-protein kinase TBK1 (Homo sapiens)
# Test settings: at 1 µM
One number for each entry, in %.

[
  {
    "Smiles text": "COc1cc2ncnc(N3CCN(C(=O)Nc4ccc(Oc5ccccc5)cc4)CC3)c2cc1OC",
    "residual activity / %": 57
  }
]

For each listed entry, give its residual activity.
1. O=C1NC(=O)/C(=C\c2ccc3nccnc3c2)S1
2. Cc1cccc(-c2[nH]c(C(C)(C)C)nc2-c2ccc3c(c2)OCO3)n1

Response given:
56
73

* * *

Provide the reported residual activity of each item.
# System name: Mitogen-activated protein kinase kinase kinase 9 (Homo sapiens) (UniProt P80192)
# Sequence (P80192 whole entry, looked up): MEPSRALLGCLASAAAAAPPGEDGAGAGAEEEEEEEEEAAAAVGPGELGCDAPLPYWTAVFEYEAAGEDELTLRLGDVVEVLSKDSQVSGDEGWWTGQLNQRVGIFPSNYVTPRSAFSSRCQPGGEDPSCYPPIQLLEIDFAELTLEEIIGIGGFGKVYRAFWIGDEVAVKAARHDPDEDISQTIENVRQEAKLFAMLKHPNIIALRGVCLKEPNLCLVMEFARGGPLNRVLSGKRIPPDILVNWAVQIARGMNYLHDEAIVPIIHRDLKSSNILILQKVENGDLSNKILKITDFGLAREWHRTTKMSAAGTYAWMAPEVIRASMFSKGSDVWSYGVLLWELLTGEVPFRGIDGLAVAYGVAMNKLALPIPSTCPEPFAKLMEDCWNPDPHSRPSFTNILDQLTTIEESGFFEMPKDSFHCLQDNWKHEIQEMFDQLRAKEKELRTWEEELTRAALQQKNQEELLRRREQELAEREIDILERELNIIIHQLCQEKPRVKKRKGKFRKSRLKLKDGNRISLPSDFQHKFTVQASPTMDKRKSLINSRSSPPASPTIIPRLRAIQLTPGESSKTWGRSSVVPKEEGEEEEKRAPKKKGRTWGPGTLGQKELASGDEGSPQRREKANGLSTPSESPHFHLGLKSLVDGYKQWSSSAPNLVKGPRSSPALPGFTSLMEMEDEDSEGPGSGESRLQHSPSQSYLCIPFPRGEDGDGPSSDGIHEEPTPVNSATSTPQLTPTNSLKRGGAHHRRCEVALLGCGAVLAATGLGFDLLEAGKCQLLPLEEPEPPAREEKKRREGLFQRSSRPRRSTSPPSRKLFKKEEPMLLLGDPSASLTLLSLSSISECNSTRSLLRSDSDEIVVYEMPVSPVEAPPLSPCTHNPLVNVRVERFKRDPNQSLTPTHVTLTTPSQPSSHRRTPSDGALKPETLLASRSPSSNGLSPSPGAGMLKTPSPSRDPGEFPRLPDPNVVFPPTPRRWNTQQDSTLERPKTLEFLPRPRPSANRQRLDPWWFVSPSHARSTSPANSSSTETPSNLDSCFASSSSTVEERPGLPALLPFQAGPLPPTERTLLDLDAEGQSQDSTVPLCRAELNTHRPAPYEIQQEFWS
# Test settings: at 10 µM
Give bare numbers, in %.

# annotated cases, reported residual activity shown
[
  {
    "Smiles text": "CCC(=O)Nc1ccc2ncnc(Nc3cccc(Br)c3)c2c1",
    "Readout name": "residual activity",
    "Unit spec": "%",
    "Obs value": 78
  },
  {
    "Smiles text": "N#CC(C#N)=C(N)/C(C#N)=C/c1ccc(O)cc1",
    "Readout name": "residual activity",
    "Unit spec": "%",
    "Obs value": 97
  },
  {
    "Smiles text": "N#CCCc1ccc2c(c1)-c1[nH]c3ccc([N+](=O)[O-])cc3c1CC(=O)N2",
    "Readout name": "residual activity",
    "Unit spec": "%",
    "Obs value": 2
  },
  {
    "Smiles text": "CNc1cc2c(Nc3cccc(Br)c3)ncnc2cn1",
    "Readout name": "residual activity",
    "Unit spec": "%",
    "Obs value": 53
  },
  {
    "Smiles text": "Oc1n[nH]c2nnc(-c3c(-c4ccccc4)nn4ccccc34)cc12",
    "Readout name": "residual activity",
    "Unit spec": "%",
    "Obs value": 48
  }
]

For each listed entry, give its residual activity.
1. Cn1cnc2cc3c(Nc4cccc(Br)c4)ncnc3cc21
2. COc1ccc(OC)c2c(=S)c3ccccc3[nH]c12
3. Oc1c2ccccc2c2c3c(cccc13)N=N2
4. O=C1NC(=O)c2cc(Nc3ccc(F)cc3)c(Nc3ccc(F)cc3)cc21
5. CC[n+]1c(/C=C/N(C)c2ccccc2)n(-c2ccccc2)c2ccc(-c3nc4ccccc4s3)cc21
6. Cc1cc2ncc(-c3ccccc3)nc2cc1C

Response given:
1. 40
2. 89
3. 4
4. 75
5. 103
6. 102

For each listed entry, give its residual activity.
1. Nc1ccc2ncnc(NCCc3ccc(Oc4ccccc4)cc3)c2c1
2. COc1cc2ncc(-c3ccccc3)nc2cc1OC
3. O=C(Nc1cccc(Nc2cc(Nc3cccc(C(F)(F)F)c3)ncn2)c1)C1CC1
4. Cc1cc(Nc2nc(-c3ccccc3)nc3ccccc23)n[nH]1
5. CC(C)n1cnc2/c(=N/c3cccc(Cl)c3)nc(NCCO)[nH]c21
6. CC(C)n1cnc2c(NCc3ccccc3)nc(NCCCO)nc21
7. Cn1nc2c3c(cccc31)C(=O)c1ccccc1-2

Response given:
80
60
36
1
1
73
28

* * *

# System name: Mitogen-activated protein kinase 11 (Homo sapiens)
# Test settings: at 10 µM
Readout name: residual activity (%)
Numbers only, in %.

For each listed entry, give its residual activity.
1. Oc1ccc(-c2nc(-c3ccc(F)cc3)c(-c3ccncc3)[nH]2)cc1
2. Cn1nc2c3c(cccc31)C(=O)c1ccccc1-2
3. NC(=O)c1ccc2[nH]c(-c3ccc(Oc4ccc(Cl)cc4)cc3)nc2c1
4. CO[C@H]1[C@@H](OC)C[C@H](C)[C@@H](OC)C2=CC(=O)C=C(NC(=O)/C(C)=C/C=C/[C@H](OC)[C@@H](OC(N)=O)/C(C)=C/[C@@H]1C)C2=O
5. Nc1cccc(-c2cc3c(Oc4cccc(O)c4)ncnc3[nH]2)c1

Response given:
1: -1; 2: 92; 3: 101; 4: 102; 5: 7

* * *

# System name: SRSF protein kinase 3 (Homo sapiens) (UniProt Q9UPE1);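 further: residual kinase activity expressed as percent of uninhibited control, measured in MOPS buffer at pH 7.0 containing EDTA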
# Sequence (Q9UPE1 whole entry): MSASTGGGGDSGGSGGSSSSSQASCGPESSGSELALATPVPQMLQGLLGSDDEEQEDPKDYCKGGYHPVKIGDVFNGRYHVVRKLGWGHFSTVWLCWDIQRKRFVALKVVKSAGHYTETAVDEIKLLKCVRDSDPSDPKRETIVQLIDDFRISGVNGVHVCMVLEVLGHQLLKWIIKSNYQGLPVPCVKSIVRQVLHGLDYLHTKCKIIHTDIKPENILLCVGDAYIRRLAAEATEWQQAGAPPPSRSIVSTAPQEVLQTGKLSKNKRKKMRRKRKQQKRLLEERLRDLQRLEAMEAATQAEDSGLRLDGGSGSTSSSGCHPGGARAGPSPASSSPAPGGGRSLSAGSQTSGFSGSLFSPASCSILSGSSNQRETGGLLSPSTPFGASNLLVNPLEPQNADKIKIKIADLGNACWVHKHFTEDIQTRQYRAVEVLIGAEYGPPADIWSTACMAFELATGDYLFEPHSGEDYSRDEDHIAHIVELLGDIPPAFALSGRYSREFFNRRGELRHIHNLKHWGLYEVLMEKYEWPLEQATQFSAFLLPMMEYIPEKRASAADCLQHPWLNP
# Test settings: at 1 µM
# Description: Millipore: Percentage of residual kinase activity of SRPK3 at 1uM relative to control. Control inhibitor: Phosphoric acid* at 0.3uM. Buffer: 8 mM MOPS pH 7.0, 0.2 mM EDTA
Readout name: residual activity (%)
Answers are plain numbers, in %.

For each listed entry, give its residual activity.
1. CCN(CC)C(=O)c1ccc(Nc2nc(OCC3CCCCC3)c3nc[nH]c3n2)cc1
2. O=C1NC(=O)c2c1c1c3ccccc3[nH]c1c1[nH]c3cc(Br)ccc3c21
3. Cn1nc2c3c(cccc31)C(=O)c1ccccc1-2
4. O=[N+]([O-])c1ccc(-c2nc(-c3ccc(F)cc3)c(-c3ccncc3)[nH]2)cc1
5. COc1ccc(S(=O)(=O)N(CCO)c2ccccc2CN(C)C/C=C/c2ccc(Cl)cc2)cc1
6. Nc1n[nH]c2nnc(-c3c(-c4ccccc4)nn4ccccc34)cc12
7. O=C(Nc1cccc(Nc2nccc(Nc3cccc(C(F)(F)F)c3)n2)c1)C1CC1

Response given:
[66, 92, 98, 105, 102, 93, 105]

For each listed entry, give its residual activity.
1. COc1ccc(C(=O)Nc2sc3c(c2C(N)=O)CCCC3)cc1OC
2. CC(C)n1cnc2c(NCc3ccccc3)nc(NCCCO)nc21

Response given:
[104, 106]

For each listed entry, give its residual activity.
1. COc1ccc(CNc2nc(N(CCO)CCO)nc3c2ncn3C(C)C)cc1
2. COc1cc2ncnc(Nc3ccc(Oc4ccccc4)cc3)c2cc1OC
3. CO[C@H]1C[C@@H]2CC[C@@H](C)[C@@](O)(O2)C(=O)C(=O)N2CCCC[C@H]2C(=O)O[C@H]([C@H](C)C[C@@H]2CC[C@@H](O)[C@H](OC)C2)CC(=O)[C@H](C)/C=C(\C)[C@@H](O)[C@@H](OC)C(=O)[C@H](C)C[C@H](C)/C=C/C=C/C=C/1C
4. O=C1c2ccccc2-[n+]2ccc3c([nH]c4ccccc43)c21

Response given:
1: 105; 2: 105; 3: 105; 4: 106

* * *

Provide the reported residual activity of each item.
# System name: Protein kinase C iota type (Homo sapiens) (UniProt P41743)
# Sequence (P41743 whole entry): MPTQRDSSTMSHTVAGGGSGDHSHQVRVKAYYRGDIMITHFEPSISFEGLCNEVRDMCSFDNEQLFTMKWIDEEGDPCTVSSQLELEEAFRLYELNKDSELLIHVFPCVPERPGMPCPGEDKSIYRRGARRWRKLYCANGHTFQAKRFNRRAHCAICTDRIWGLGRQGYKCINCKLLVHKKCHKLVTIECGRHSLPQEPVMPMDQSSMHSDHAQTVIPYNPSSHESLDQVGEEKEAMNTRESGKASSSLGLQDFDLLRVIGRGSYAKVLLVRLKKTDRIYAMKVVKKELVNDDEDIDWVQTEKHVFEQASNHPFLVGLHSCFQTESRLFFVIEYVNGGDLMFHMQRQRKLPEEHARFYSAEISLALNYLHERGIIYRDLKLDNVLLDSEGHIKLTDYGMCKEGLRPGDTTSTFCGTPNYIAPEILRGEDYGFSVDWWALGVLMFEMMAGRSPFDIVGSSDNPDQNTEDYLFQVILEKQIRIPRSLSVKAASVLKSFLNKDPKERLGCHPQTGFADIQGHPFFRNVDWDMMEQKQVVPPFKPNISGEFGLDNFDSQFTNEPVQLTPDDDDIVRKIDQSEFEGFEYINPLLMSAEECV
# Test settings: at 1 µM
One number for each entry, in %.

[
  {
    "Compound": "O=C1Nc2ccccc2/C1=C1/Nc2ccccc2/C1=N\\OCCC(O)CO (centres undefined)",
    "Unit spec": "%",
    "residual activity": 113
  }
]

For each listed entry, give its residual activity.
1. Oc1ccc(-c2nc(-c3ccc(F)cc3)c(-c3ccncc3)[nH]2)cc1
2. C[C@@H](N)[C@H]1CC[C@H](C(=O)Nc2ccncc2)CC1
3. Cc1ccc(NC2=CC(=O)c3sc(C)nc3C2=O)cc1
4. COc1cccc(-c2cc(=O)c3ccccc3o2)c1N
5. CCOc1cc2ncnc(Nc3cccc(Br)c3)c2cc1OCC
6. CNc1cc2c(Nc3cccc(Br)c3)ncnc2cn1
7. CN(C)c1ccc(/C=C2\C(=O)Nc3ccccc32)cc1

Response given:
1: 109; 2: 101; 3: 106; 4: 114; 5: 87; 6: 94; 7: 92

Challenge: # query: residual activity of entry O=C1Nc2ccc(Br)cc2/C1=C\c1cc2c([nH]1)CCCC2
Response given: 84

* * *

# System name: Myosin light chain kinase, smooth muscle (Homo sapiens) (UniProt Q15746)
# Test settings: at 10 µM
Readout name: residual activity (%)
One number for each entry, in %.

[
  {
    "Smiles text": "COc1cccc(-c2cc(=O)c3ccccc3o2)c1N",
    "Unit spec": "%",
    "residual activity": 77
  }
]

For each listed entry, give its residual activity.
1. N#CC(C#N)=C(N)/C(C#N)=C/c1ccc(O)cc1
2. CCC(=O)Nc1ccc2ncnc(Nc3cccc(Br)c3)c2c1
3. CO[C@H]1[C@@H](OC)C[C@H](C)[C@@H](OC)C2=CC(=O)C=C(NC(=O)/C(C)=C/C=C/[C@H](OC)[C@@H](OC(N)=O)/C(C)=C/[C@@H]1C)C2=O
4. COc1ccc(C(=O)Nc2sc3c(c2C(N)=O)CCCC3)cc1OC

Response given:
85
82
90
66

* * *

# System name: Proto-oncogene tyrosine-protein kinase ROS (Homo sapiens) (UniProt P08922)
# Sequence (P08922 whole entry): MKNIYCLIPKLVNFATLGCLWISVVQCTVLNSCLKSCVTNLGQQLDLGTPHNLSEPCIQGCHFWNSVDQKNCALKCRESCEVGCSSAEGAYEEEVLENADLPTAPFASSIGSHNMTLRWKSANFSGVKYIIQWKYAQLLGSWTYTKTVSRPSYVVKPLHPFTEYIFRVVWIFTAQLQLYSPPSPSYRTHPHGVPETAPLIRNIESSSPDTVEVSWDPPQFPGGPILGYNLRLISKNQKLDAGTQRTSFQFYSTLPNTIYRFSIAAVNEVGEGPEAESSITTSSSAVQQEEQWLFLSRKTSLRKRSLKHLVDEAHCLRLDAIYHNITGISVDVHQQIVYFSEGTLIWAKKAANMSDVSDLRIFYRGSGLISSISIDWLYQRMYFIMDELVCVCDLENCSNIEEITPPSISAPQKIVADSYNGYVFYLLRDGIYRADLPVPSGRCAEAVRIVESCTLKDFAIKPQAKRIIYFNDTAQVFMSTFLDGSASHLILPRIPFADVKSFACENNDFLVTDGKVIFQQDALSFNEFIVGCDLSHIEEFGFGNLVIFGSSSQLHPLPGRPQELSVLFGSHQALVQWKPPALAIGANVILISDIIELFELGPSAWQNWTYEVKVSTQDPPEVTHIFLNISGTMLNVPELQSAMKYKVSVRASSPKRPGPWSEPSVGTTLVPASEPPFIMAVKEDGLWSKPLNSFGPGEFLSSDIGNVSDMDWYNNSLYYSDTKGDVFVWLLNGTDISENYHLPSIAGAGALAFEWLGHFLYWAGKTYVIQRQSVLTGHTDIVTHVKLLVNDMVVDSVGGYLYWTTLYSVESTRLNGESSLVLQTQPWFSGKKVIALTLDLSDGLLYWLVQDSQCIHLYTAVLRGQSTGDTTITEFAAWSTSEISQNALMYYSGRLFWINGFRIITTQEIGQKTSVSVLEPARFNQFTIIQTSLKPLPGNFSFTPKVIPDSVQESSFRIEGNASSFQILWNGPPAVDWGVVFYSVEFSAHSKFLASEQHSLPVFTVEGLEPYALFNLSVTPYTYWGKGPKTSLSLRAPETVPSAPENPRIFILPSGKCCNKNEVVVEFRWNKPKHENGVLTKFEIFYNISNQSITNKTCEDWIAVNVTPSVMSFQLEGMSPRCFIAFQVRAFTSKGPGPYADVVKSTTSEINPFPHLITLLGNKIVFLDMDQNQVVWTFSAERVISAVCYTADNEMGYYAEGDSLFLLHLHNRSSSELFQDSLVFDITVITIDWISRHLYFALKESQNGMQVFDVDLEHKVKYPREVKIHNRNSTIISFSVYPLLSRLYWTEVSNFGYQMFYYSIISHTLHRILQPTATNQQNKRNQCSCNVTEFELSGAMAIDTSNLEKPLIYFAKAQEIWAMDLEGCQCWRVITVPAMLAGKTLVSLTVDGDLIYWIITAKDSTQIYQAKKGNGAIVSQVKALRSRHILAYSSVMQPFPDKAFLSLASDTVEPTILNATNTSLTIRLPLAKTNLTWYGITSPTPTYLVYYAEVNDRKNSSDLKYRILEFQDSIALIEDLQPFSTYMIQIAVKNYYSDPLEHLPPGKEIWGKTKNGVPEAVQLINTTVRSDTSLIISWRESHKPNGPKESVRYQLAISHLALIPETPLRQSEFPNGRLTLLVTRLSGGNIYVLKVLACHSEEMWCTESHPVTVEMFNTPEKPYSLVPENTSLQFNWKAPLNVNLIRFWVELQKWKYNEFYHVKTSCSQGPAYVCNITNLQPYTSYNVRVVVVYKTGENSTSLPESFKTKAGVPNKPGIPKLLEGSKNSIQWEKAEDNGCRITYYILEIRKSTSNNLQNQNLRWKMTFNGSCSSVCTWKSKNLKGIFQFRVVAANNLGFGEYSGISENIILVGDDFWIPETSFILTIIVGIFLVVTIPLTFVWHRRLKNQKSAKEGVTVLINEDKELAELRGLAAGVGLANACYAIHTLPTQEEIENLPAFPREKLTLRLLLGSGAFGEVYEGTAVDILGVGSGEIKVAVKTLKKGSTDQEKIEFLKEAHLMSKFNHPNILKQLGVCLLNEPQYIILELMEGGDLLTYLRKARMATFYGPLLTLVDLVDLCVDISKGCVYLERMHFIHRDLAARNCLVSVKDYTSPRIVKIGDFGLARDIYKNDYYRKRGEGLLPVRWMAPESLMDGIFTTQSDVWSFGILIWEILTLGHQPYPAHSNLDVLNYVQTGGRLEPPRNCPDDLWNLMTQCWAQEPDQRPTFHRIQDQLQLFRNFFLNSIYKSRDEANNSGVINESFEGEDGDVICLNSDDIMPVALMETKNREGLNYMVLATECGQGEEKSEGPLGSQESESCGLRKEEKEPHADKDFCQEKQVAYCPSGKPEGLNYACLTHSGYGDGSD
# Test settings: at 1 µM
Readout name: residual activity (%)
One number for each entry, in %.

[
  {
    "Smiles text": "COc1ccc(C(=O)Nc2sc3c(c2C(N)=O)CCCC3)cc1OC",
    "Obs value": 96
  }
]

For each listed entry, give its residual activity.
1. CO[C@@H]1[C@H](N(C)C(=O)c2ccccc2)C[C@H]2O[C@]1(C)n1c3ccccc3c3c4c(c5c6ccccc6n2c5c31)C(=O)NC4
2. CC(=O)O/N=C1\C(=C2\C(=O)Nc3cc(Br)ccc32)Nc2ccccc21
3. CN(C)CCCn1cc(C2=C(c3c[nH]c4ccccc34)C(=O)NC2=O)c2ccccc21
4. O=C1NC(=O)c2cc(Nc3ccc(F)cc3)c(Nc3ccc(F)cc3)cc21
5. Nc1n[nH]c2nnc(-c3c(-c4ccccc4)nn4ccccc34)cc12

Response given:
1: 63; 2: 100; 3: 108; 4: 94; 5: 91
